Target: murine E^d MHC class II allele (Mus musculus, UniProt P01904+P01915)
Sequence (P01904 26-255): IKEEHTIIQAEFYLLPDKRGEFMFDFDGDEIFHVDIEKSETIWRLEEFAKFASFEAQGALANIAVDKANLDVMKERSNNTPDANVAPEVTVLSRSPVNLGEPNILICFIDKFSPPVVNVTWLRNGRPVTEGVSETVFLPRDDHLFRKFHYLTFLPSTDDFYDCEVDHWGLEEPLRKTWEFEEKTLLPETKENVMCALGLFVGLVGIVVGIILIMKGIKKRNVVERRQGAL
Sequence (P01915 27-264 limits assumed): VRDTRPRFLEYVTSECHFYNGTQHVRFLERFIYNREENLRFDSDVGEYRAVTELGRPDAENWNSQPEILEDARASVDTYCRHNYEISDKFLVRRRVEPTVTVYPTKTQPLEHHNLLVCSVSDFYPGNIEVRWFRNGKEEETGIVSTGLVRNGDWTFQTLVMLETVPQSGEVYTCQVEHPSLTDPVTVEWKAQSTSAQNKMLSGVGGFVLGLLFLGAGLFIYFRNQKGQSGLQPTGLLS
Assay: processed antigen assay, E^d allele (APC pulsed with native HEL)
Type: cell-based
Parameters: The A20 and CH27 B cell lymphoma lines express H-2^d and H-2^k alleles, respectively; endogenous in cells; host or cells: A20 B cell lymphoma (mitomycin C-treated or paraformaldehyde-fixed)
Conditions: Table 31; native HEL prepulse 10 μM; AE peptide 64 μM; supernatant dilution 1:4
Non-standard residues stand in square brackets, D forms with d. hArg = N=C(N)NCCCC[C@H](N)C(=O)O; Cit = NC(=O)NCCC[C@H](N)C(=O)O
The reader will find reported T cell response relative to baseline (None = 1.00), E^d values listed item by item below.
Lab note: record the figure alone, no unit after it.

Study these solved cases before continuing.
- Substance: "Ac-ARNKLPK-NH2 [AE344]"
  Numeric result: 0.76
- Substance: "Ac-LRNKNPF-NH2 [AE348]"
  Numeric result: 0.81
- Substance: "Ac-LRMKNPF-NH2 [AE350]"
  Numeric result: 0.56

Entry Ac-LRNKNPK-NH2 [AE349] — recorded T cell response relative to baseline (None = 1.00), E^d = 0.64

Entry Ac-ARMKLPKSAK-NH2 [AE120] — recorded T cell response relative to baseline (None = 1.00), E^d = 0.51

Entry Ac-ARMKNPK-NH2 [AE345] — recorded T cell response relative to baseline (None = 1.00), E^d = 0.81

Entry Ac-LRMK HArg PK-NH2 (Ac-LRMK[hArg]PK-NH2; SMILES CSCC[C@H](NC(=O)[C@H](CCCNC(=N)N)NC(=O)[C@H](CC(C)C)NC(C)=O)C(=O)N[C@@H](CCCCN)C(=O)N[C@@H](CCCCNC(=N)N)C(=O)N1CCC[C@H]1C(=O)N[C@@H](CCCCN)C(N)=O) [AE227] — recorded T cell response relative to baseline (None = 1.00), E^d = 0.35

Entry Ac-LRMK Y PK-NH2 (Ac-LRMKYPK-NH2; not fully specified; printed as Ac-LRMK Y PK-NH2) [AE235] — recorded T cell response relative to baseline (None = 1.00), E^d = 0.53

Entry Ac-LR N KLPK-NH2 (Ac-LRNKLPK-NH2) [AE202] — recorded T cell response relative to baseline (None = 1.00), E^d = 0.76

Entry Ac-LR L KLPK-NH2 (Ac-LRLKLPK-NH2; not fully specified; printed as Ac-LR L KLPK-NH2) [AE206] — recorded T cell response relative to baseline (None = 1.00), E^d = 0.41

Entry Ac-LRMK N PK-NH2 (Ac-LRMKNPK-NH2) [AE232] — recorded T cell response relative to baseline (None = 1.00), E^d = 0.46

Entry Ac-LRMKLPK-NH2 [AE114] — recorded T cell response relative to baseline (None = 1.00), E^d = 0.49

Entry Ac-Y[Cit]MKLPKSAK-NH2 [AE131] — recorded T cell response relative to baseline (None = 1.00), E^d = 0.49

Entry Ac-LRLKWPK-NH2 [AE309] — recorded T cell response relative to baseline (None = 1.00), E^d = 0.44

Entry Ac-ARNKNPK-NH2 [AE346] — recorded T cell response relative to baseline (None = 1.00), E^d = 0.78

Entry Ac-ARNKNPF-NH2 [AE347] — recorded T cell response relative to baseline (None = 1.00), E^d = 0.80

Entry Ac-LRMKLP F-NH2 (Ac-LRMKLPF-NH2) [AE248] — recorded T cell response relative to baseline (None = 1.00), E^d = 0.30

Entry Ac-LRLKYPK-NH2 [AE301] — recorded T cell response relative to baseline (None = 1.00), E^d = 0.46
